The entries below are paired with their reported log10 EC50.
target: recombinant human PKM2 (Homo sapiens)
Construct: His (N); purchased R&D Systems
measurementDescription: Human PKM2 activation assay (Kinase-Glo Plus luminescent detection of generated ATP)
Format: biochemical
experimentalSetup: recombinant human PKM2 activation; 4-parameter logistic fit; read-out: hPKM2 EC50
Note the log scale: values are log10 of EC50 expressed in nM.

{"structureString": "Cc1cn(CCO)nc1Cn1ncc2cc(S(=O)(=O)c3ccccc3)ccc2c1=O", "target": "recombinant human PKM2 (Homo sapiens)", "log10 EC50": 2.19}
{"structureString": "Cc1coc2ccc(S(=O)(=O)c3ccc4c(=O)n(Cc5cc[nH]n5)ncc4c3)cc12", "target": "recombinant human PKM2 (Homo sapiens)", "log10 EC50": 1.83}
{"structureString": "O=c1c2ccc(S(=O)(=O)c3cnn(CCO)c3)cc2cnn1Cc1ccc2c(n1)CCO2", "target": "recombinant human PKM2 (Homo sapiens)", "log10 EC50": 1.70}

Consider the record given below.
Name the recorded log10 EC50 for `Cc1ccc(S(=O)(=O)c2ccc3c(=O)n(Cc4cc[nH]n4)ncc3c2)cn1` .
2.77

====

target: recombinant human PKM2 (Homo sapiens, UniProt P14618)
Construct: His (N); purchased R&D Systems
Sequence (P14618 2-531 limits assumed): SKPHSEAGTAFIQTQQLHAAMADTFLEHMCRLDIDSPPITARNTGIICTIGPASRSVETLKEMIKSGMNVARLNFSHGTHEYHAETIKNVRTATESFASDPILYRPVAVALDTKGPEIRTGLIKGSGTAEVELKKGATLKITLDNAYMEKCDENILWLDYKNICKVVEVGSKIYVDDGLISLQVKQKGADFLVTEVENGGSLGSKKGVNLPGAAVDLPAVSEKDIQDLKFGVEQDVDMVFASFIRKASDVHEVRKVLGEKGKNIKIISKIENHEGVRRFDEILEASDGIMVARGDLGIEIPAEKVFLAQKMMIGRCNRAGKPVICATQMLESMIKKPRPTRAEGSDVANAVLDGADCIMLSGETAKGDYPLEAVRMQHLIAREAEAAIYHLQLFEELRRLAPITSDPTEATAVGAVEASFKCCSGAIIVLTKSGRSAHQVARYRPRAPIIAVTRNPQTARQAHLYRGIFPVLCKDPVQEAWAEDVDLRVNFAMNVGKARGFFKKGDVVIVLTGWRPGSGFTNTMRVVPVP
measurementDescription: Human PKM2 activation assay (Kinase-Glo Plus luminescent detection of generated ATP)
Format: biochemical
experimentalSetup: recombinant human PKM2 activation; 4-parameter logistic fit; read-out: hPKM2 EC50
pEC50: −log10 of the molar value.
The threshold is inclusive: pEC50 of exactly 7 counts as satisfied; values below receive not satisfied.

{"molecule": "COc1ccc(S(=O)(=O)c2ccc3c(=O)n(Cc4ccn(C)n4)ncc3c2)cc1 [Example 72]", "target": "recombinant human PKM2 (Homo sapiens, UniProt P14618)", "classLabel": "satisfied"}
{"molecule": "COc1ccc(Cn2ncc3cc(S(=O)(=O)c4ccc(Cl)cc4)ccc3c2=O)cn1 [Example 155]", "target": "recombinant human PKM2 (Homo sapiens, UniProt P14618)", "classLabel": "not satisfied"}
{"molecule": "COCCn1cc(S(=O)(=O)c2ccc3c(=O)n(Cc4ccc5c(n4)CCO5)ncc3c2)cn1 [Example 333]", "target": "recombinant human PKM2 (Homo sapiens, UniProt P14618)", "classLabel": "satisfied"}

# next molecule below
In plain terms: is recorded pEC50 at least 7 for COc1ccc(Cn2ncc3cc(S(=N)(=O)c4ccccc4)ccc3c2=O)cn1 (racemic) [Example 131] ?
not satisfied

====

target: recombinant human PKM2 (Homo sapiens)
Construct: His (N); purchased R&D Systems
measurementDescription: Human PKM2 activation assay (Kinase-Glo Plus luminescent detection of generated ATP)
Format: biochemical
experimentalSetup: percentage activation normalised to DMSO vehicle (LOW) and 5 μM TEPP-46 (HIGH); read-out: hPKM2 Emax
The threshold is inclusive: Emax of exactly 90% counts as Met; values below receive Not met.

Past entries and their recorded results:
{"molecule": "COc1ccc(Cn2ncc3cc(S(=O)(=O)c4ccccc4)ccc3c2=O)nc1", "classLabel": "Met"}
{"molecule": "COc1ccc(Cn2ncc3cc([S@@](=N)(=O)c4ccc5c(c4)CCO5)ccc3c2=O)cn1 (single isomer, unassigned)", "classLabel": "Not met"}
{"molecule": "COc1ncccc1Cn1ncc2cc(S(=O)(=O)c3ccccc3)ccc2c1=O", "classLabel": "Met"}
{"molecule": "CC(O)c1cccc(Cn2ncc3cc(S(=O)(=O)c4cnn(C)c4)ccc3c2=O)n1 (centres unmarked)", "classLabel": "Met"}
{"molecule": "Cn1ccc(Cn2ncc3cc(S(=O)(=O)c4ccccc4)c(NCCO)cc3c2=O)n1", "classLabel": "Met"}

In plain terms: is recorded Emax at least 90% for `O=c1c2ccc(S(=O)(=O)c3cn[nH]c3)cc2cnn1Cc1ccc2c(n1)NCCO2` ?
Met

In plain terms: is recorded Emax at least 90% for `Cc1cccc(Cn2ncc3cc(S(=O)(=O)c4n[nH]cc4Cl)ccc3c2=O)n1` ?
Met

In plain terms: is recorded Emax at least 90% for `COc1ccc(Cn2ncc3cc(S(=O)(=O)c4cn(C)c(C)n4)ccc3c2=O)cn1` ?
Not met

====

The entries below are paired with their reported pEC50.
target: recombinant human PKM2 (Homo sapiens, UniProt P14618)
Construct: His (N); purchased R&D Systems
measurementDescription: Human PKM2 activation assay (Kinase-Glo Plus luminescent detection of generated ATP)
Type: biochemical
experimentalSetup: recombinant human PKM2 activation; 4-parameter logistic fit; read-out: hPKM2 EC50
pEC50 here: minus log base 10 of the concentration, concentration in moles per litre.

What pEC50 appears in the records for this compound with recombinant human PKM2 (Homo sapiens, UniProt P14618)? CC(C)n1ccc(Cn2ncc3cc(S(=O)(=O)c4ccccc4)ccc3c2=O)n1 [Example 95]
7.02

What pEC50 appears in the records for this compound with recombinant human PKM2 (Homo sapiens, UniProt P14618)? O=c1c2ccc(S(=O)(=O)c3cnn(C4CC4)c3)cc2cnn1Cc1cc[nH]n1 [Example 228]
7.39

What pEC50 appears in the records for this compound with recombinant human PKM2 (Homo sapiens, UniProt P14618)? COc1ccccc1Cn1ncc2cc(S(=O)(=O)c3ccccc3)ccc2c1=O [Example 79]
6.69

What pEC50 appears in the records for this compound with recombinant human PKM2 (Homo sapiens, UniProt P14618)? COc1ccc(Cn2ncc3cc(S(=O)(=O)c4cnc5c(c4)CCO5)ccc3c2=O)cn1 [Example 183]
7.33

What pEC50 appears in the records for this compound with recombinant human PKM2 (Homo sapiens, UniProt P14618)? Cc1[nH]nc(Cn2ncc3cc(S(=O)(=O)c4cnn(C(F)F)c4)ccc3c2=O)c1Cl [Example 349]
7.34

What pEC50 appears in the records for this compound with recombinant human PKM2 (Homo sapiens, UniProt P14618)? COCC(c1ccccc1)n1ncc2cc(S(=O)(=O)c3ccc(OC)cc3)ccc2c1=O (centres unmarked) [Example 82]
7.09

What pEC50 appears in the records for this compound with recombinant human PKM2 (Homo sapiens, UniProt P14618)? O=c1c2ccc(S(=O)(=O)c3cccnc3)cc2cnn1Cc1cc[nH]n1 [Example 233]
6.31

What pEC50 appears in the records for this compound with recombinant human PKM2 (Homo sapiens, UniProt P14618)? N#Cc1sccc1Cn1ncc2cc(S(=O)(=O)c3ccccc3)ccc2c1=O [Example 23]
6.58

====

The entries below are paired with their reported log10 EC50.
target: recombinant human PKM2 (Homo sapiens)
Construct: His (N); purchased R&D Systems
measurementDescription: Human PKM2 activation assay (Kinase-Glo Plus luminescent detection of generated ATP)
Format: biochemical
experimentalSetup: recombinant human PKM2 activation; 4-parameter logistic fit; read-out: hPKM2 EC50
Note the log scale: values are log10 of EC50 expressed in nM.

{"compound": "COc1ccc(Cn2ncc3cc(S(=O)(=O)c4ccc5c(c4)CC(C)(C)O5)ccc3c2=O)cn1", "log10 EC50": 2.12}
{"compound": "COc1ccc(S(=O)(=O)c2ccc3c(=O)n(Cc4c(C)ccnc4O)ncc3c2)cc1", "log10 EC50": 2.14}

What log10 EC50 appears in the records for this compound with recombinant human PKM2 (Homo sapiens)? `O=c1c2ccc(S(=O)(=O)c3ccccc3)cc2cnn1Cc1cccnc1`
2.56

What log10 EC50 appears in the records for this compound with recombinant human PKM2 (Homo sapiens)? `COc1ccc(Cn2ncc3cc(S(=O)(=O)c4ccccc4OC)ccc3c2=O)cn1`
2.16

What log10 EC50 appears in the records for this compound with recombinant human PKM2 (Homo sapiens)? `COc1ccc(Cn2ncc3cc(S(=O)(=O)c4ccn(C)n4)ccc3c2=O)cn1`
2.27

What log10 EC50 appears in the records for this compound with recombinant human PKM2 (Homo sapiens)? `Cc1cc(Cn2ncc3cc(S(=O)(=O)c4cnn(C)c4)ccc3c2=O)n[nH]1`
2.33

What log10 EC50 appears in the records for this compound with recombinant human PKM2 (Homo sapiens)? `COc1ccc(S(=O)(=O)c2ccc3c(=O)n(Cc4ccc(OC)cc4C(N)=O)ncc3c2)cc1`
2.15

What log10 EC50 appears in the records for this compound with recombinant human PKM2 (Homo sapiens)? `COc1ccc(Cn2ncc3cc(S(=O)(=O)c4ccc5c(c4)OCCO5)ccc3c2=O)cn1`
1.18

What log10 EC50 appears in the records for this compound with recombinant human PKM2 (Homo sapiens)? `O=c1c2ccc(S(=O)(=O)c3ccccn3)cc2cnn1Cc1cc[nH]n1`
2.35

What log10 EC50 appears in the records for this compound with recombinant human PKM2 (Homo sapiens)? `Cn1ccc(Cn2ncc3cc(S(=O)(=O)c4ccc5c(c4)NCCO5)ccc3c2=O)n1`
1.45

What log10 EC50 appears in the records for this compound with recombinant human PKM2 (Homo sapiens)? COc1ccc(Cn2ncc3cc(S(=N)(=O)c4ccc5c(c4)CCO5)ccc3c2=O)cn1 (racemic)
1.64

What log10 EC50 appears in the records for this compound with recombinant human PKM2 (Homo sapiens)? `O=c1c2ccc(S(=O)(=O)c3cn[nH]c3)cc2cnn1Cc1ccc2c(n1)OCCO2`
1.50

What log10 EC50 appears in the records for this compound with recombinant human PKM2 (Homo sapiens)? `Cn1cc(S(=O)(=O)c2cc3cnn(Cc4cc[nH]n4)c(=O)c3cn2)cn1`
2.28

What log10 EC50 appears in the records for this compound with recombinant human PKM2 (Homo sapiens)? `Cn1cc(S(=O)(=O)c2ccc3c(=O)n(Cc4cc[nH]n4)ncc3c2)cn1`
2.20

What log10 EC50 appears in the records for this compound with recombinant human PKM2 (Homo sapiens)? `Nc1cccc(Cn2ncc3cc(S(=O)(=O)c4ccccc4)ccc3c2=O)c1`
1.89

What log10 EC50 appears in the records for this compound with recombinant human PKM2 (Homo sapiens)? `Cc1cccc(Cn2ncc3cc(S(=O)(=O)c4cnn(CCO)c4)ccc3c2=O)n1`
2.11

What log10 EC50 appears in the records for this compound with recombinant human PKM2 (Homo sapiens)? `COc1cccc(Cn2ncc3cc(S(=O)(=O)c4ccccc4)ccc3c2=O)n1`
2.12
